- Test system: SNB-75 CNS
- protocol: NCI tumour cell line growth inhibition, 48 h
readout_name: TGI

1. COc1ccc2c(c1)C(=O)C1CC(=O)CCC21 (configuration not stated) = > 100 µM

Notebook: `O=c1ssc(=Nc2ccccc2)n1-c1ccccc1` , TGI read as > 100 µM

Notebook: `COc1ccc(-c2cc(Cc3cccs3)c(=O)[nH]n2)cc1` , TGI read as > 100 µM

Notebook: CS(=O)(=O)OCC1CN(S(C)(=O)=O)c2cc(O)ccc21 (configuration not stated) , TGI read as 7.43 µM

Notebook: `CC1=NN(C(=O)c2ccncc2)C(=O)C1` , TGI read as > 100 µM

Notebook: `C/C(=C\c1ccc2ccccc2c1)[N+](=O)[O-]` , TGI read as 4.21 µM
